Every entry's value here was drawn from paper PMC5540273.

Tested on: ZAK
condition set: concentration: 1 μM, replicates: in singlicate; n = 1;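 note: KINOMEscan kinase panel screen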
Record form. Attribute: %Inh. Fill in for each entry.
Give bare numbers, in %.

As a guide, the following entries are already answered.
1) CSc1nn2c(=O)cc(N3CCOCC3)nc2n1Cc1cccc(Cl)c1Cl [GSK2347225]
0
2) Nc1nc(-c2cccnc2)c(-c2ccnc3ccccc23)s1 [GW684083]
78
3) Nc1nc(-c2ccc3c(N)n[nH]c3c2)cc(N2CCCCC2)n1 [GSK2228768]
0
4) O=c1cc(N2CCOCC2)nc2n(Cc3cccc(Cl)c3)ccn12 [GSK2296823]
0

From here, focus on the item given below.
Consider the compound CCCc1ccc(S(=O)(=O)NC2CCN(c3ccnc(Nc4ccc(OC)cc4)n3)C2)cc1 (centres unmarked) [GSK1379737] tested on ZAK; state its %Inh.
8

###

Tested on: FGFR1
condition set: concentration: 1 μM, replicates: in singlicate; n = 1
I'd be grateful if you could share measured %Inh for these entries.
Give bare numbers, in %.

1. Clc1cccc(-c2nc(Nc3ccncc3)c3ccccc3n2)c1
37

// each listed molecule needs a value for %Inh
1. CNc1nccc(-c2c(-c3ccc(F)cc3)ncn2CCCN2CCOCC2)n1
2. CS(=O)(=O)CCNCc1nc(-c2ccc3ncnc(Nc4ccc(OCc5cccc(F)c5)c(Cl)c4)c3c2)cs1.Cl
3. Fc1cccc(COc2ccc(Nc3ncnc4cc[nH]c34)cc2Cl)c1
4. COC(=O)c1c(-c2ccccc2)c2cc(Cl)ccc2c(=O)n1Cc1ccc(S(C)(=O)=O)cc1
5. CC(C)(C)c1ccc(-n2cnc3c(N)ncnc32)cc1

1. 26
2. 0
3. 14
4. 0
5. 12

Please state %Inh for every molecule in the list that follows.
1. COc1cc2c(Nc3cccc(NC(=O)c4ccccc4)c3)ncnc2cc1OCCCN1CCOCC1
2. Cl.Cl.c1ccc(-c2cc3ccncc3cc2OC2CCNCC2)cc1
3. CCc1nc(-c2cccc(C)c2)c(-c2ccnc(NC(=O)c3ccccc3)c2)s1
4. O=C(Nc1n[nH]c2nc(-c3ccco3)c(Br)cc12)c1ccc(CN2CCCC2)cc1.O=C(O)[C@H](O)[C@@H](O)C(=O)O

[18, 0, 11, 0]

# batch size: 2; output %Inh per entry
1. Nc1n[nH]c2nnc(-c3ccccc3)cc12
2. Cl.Cn1ccc(-c2cccc(Nc3ccnc4cc(-c5nccs5)ccc34)c2)n1

1: 0; 2: 0

Lab note: each molecule below needs its %Inh filled in.
1. CC(=O)Nc1n[nH]c2ncc(-c3ccccc3)cc12
2. OCCOCCn1ccc2ncnc(Nc3ccc(Oc4cccc(Cl)c4)c(Cl)c3)c21
3. Cn1ccc2ncnc(Nc3ccc(Oc4cccc(Cl)c4)c(Cl)c3)c21

1: 4; 2: 27; 3: 1

Batch: %Inh for all items listed.
1. NC(=O)c1sc(-n2cnc3ccccc32)cc1OCc1ccccc1F
2. COc1ccc(Nc2nccc(N3CCC(NC(=O)Nc4ccc5c(c4)OCO5)C3)n2)cc1 (stereo not drawn)
3. Nc1nc(-c2cccnc2)c(-c2ccnc3ccccc23)s1

1: 0; 2: 9; 3: 4

###

Tested on: ROCK2
condition set: concentration: 1 μM, replicates: in singlicate; n = 1
For each record, write down the corresponding %Inh.
Give bare numbers, in %.

Field: example entries. Status: answers known.
1) Cn1ccc2ncnc(Oc3ccc(NC(=O)Nc4cccnc4)c(Cl)c3)c21
0
2) Fc1ccc(-c2ncn(CCCNCc3ccccc3)c2-c2ccncc2)cc1
32
3) Cl.Cn1ccc(-c2cccc(Nc3ccnc4cc(-c5nccs5)ccc34)c2)n1
39
4) CS(=O)(=O)CCNCc1nc(-c2ccc3ncnc(Nc4ccc(OCc5cccc(F)c5)c(Cl)c4)c3c2)cs1.Cl
0

// switching to the query compound
Look up and report measured %Inh (ROCK2) for the following compound: `COC(=O)c1c(-c2ccccc2)c2cc(Cl)ccc2c(=O)n1Cc1ccc(S(C)(=O)=O)cc1`
0

###

Test system: HIPK1
condition set: concentration: 1 μM, replicates: in singlicate; n = 1
value type: %Inh (%)
Answers are plain numbers, in %.

1. Oc1ccc2ncnc(Nc3ccc(OCc4ccccc4)cc3)c2c1 [GI262866]
0
2. NC(=O)c1sc(-n2cnc3ccccc32)cc1OCc1ccccc1F [GSK1024306]
0
3. Cn1ccc2ncnc(Oc3ccc(NC(=O)Nc4cccnc4)c(Cl)c3)c21
13

Report %Inh for each item below.
1. Nc1nc(-c2ccc3c(N)n[nH]c3c2)cc(N2CCCCC2)n1 [GSK2228768]
2. CNc1nccc(-c2c(-c3ccc(F)cc3)ncn2C2CCN(C)CC2)n1 [SB-222903]

1. 0
2. 10

###

System: DCAMKL3
Construct: gene DCLK3
condition set: concentration: 1 μM, replicates: in singlicate; n = 1
value type: %Inh (%)
Answers are plain numbers, in %.

Example molecules with recorded %Inh:
1. CNc1nccc(-c2c(-c3ccc(F)cc3)ncn2C2CCN(C)CC2)n1 [SB-222903]
0
2. CC(C)N1CCC(n2cnc(-c3ccc(F)cc3)c2-c2ccnc(N)n2)CC1 [SB-223132]
20
3. CSc1nn2c(=O)cc(N3CCOCC3)nc2n1Cc1cccc(Cl)c1Cl [GSK2347225]
3
4. COC(=O)c1c(-c2ccccc2)c2cc(Cl)ccc2c(=O)n1Cc1ccc(S(C)(=O)=O)cc1
4

Consider the molecule CN1CCC(n2cnc(-c3ccc(F)cc3)c2-c2ccnc(NC3CCNCC3)n2)CC1 [SB-229482] . State its measured %Inh.
16

###

Tested on: CDKL1
condition set: concentration: 1 μM, replicates: in singlicate; n = 1
value type: %Inh (%)
Answers are plain numbers, in %.

Example results:
1. Clc1cc(Nc2ncnc3cc[nH]c23)ccc1OCc1ccccn1
16
2. CNc1nccc(-c2c(-c3ccc(F)cc3)ncn2CCCN2CCOCC2)n1 [SB-222516]
24

// each listed compound needs a value for %Inh
1. Fc1cccc(COc2ccc(Nc3ncnc4cc[nH]c34)cc2Cl)c1
2. Nc1nccc2scc(-c3ccc4c(c3)CCN4C(=O)Cc3cc(F)ccc3F)c12 [GSK2587663]
3. Cl.Fc1ccccc1COc1ccc(Nc2ncnc3ccc(-c4nnc(C(F)(F)F)o4)cc23)cc1Cl [GW424170]

1. 2
2. 23
3. 3

Look up %Inh for the entries below, preserving their order.
1. O=C(Nc1n[nH]c2nc(-c3ccco3)c(Br)cc12)c1ccc(CN2CCCC2)cc1.O=C(O)[C@H](O)[C@@H](O)C(=O)O [SB-742352]
2. Cl.c1ccc(Cn2ccc3cc(Nc4ncnc5ccccc45)ccc32)cc1 [GW275568]
3. CCCc1ccc(S(=O)(=O)NC2CCN(c3ccnc(Nc4ccc(OC)cc4)n3)C2)cc1 (stereo not drawn) [GSK1379737]

1: 24; 2: 18; 3: 6

Dear reader, for each entry below, please note its %Inh.
1. Oc1ccc2ncnc(Nc3ccc(OCc4ccccc4)cc3)c2c1 [GI262866]
2. COC(=O)c1c(-c2ccccc2)c2cc(Cl)ccc2c(=O)n1Cc1ccc(S(C)(=O)=O)cc1
3. O=C(NCCCN1CCCC1=O)c1cnc(NCc2cc(Cl)ccc2Cl)nc1NC1CCNCC1

0
9
3

###

Tested on: AURKC
condition set: concentration: 1 μM, replicates: in singlicate; n = 1
value type: %Inh (%)
Give bare numbers, in %.

Please review the entries below; each comes with its answer.
1. Clc1cccc(-c2nc(Nc3ccncc3)c3ccccc3n2)c1
10
2. CS(=O)(=O)CCNCc1nc(-c2ccc3ncnc(Nc4ccc(OCc5cccc(F)c5)c(Cl)c4)c3c2)cs1.Cl
0
3. Cn1ccc2ncnc(Nc3ccc(Oc4cccc(Cl)c4)c(Cl)c3)c21
0
4. N#Cc1ccc(Oc2ccc(Nc3ncnc4cc[nH]c34)cc2Cl)cc1
11
5. Cl.c1ccc(Cn2ncc3cc(Nc4ncnc5ccccc45)ccc32)cc1
0
6. Fc1cccc(COc2ccc(Nc3ncnc4cc[nH]c34)cc2Cl)c1
8
7. CC(=O)Nc1n[nH]c2ncc(-c3ccccc3)cc12
32
8. Nc1nc(-c2ccc3c(N)n[nH]c3c2)cc(N2CCCCC2)n1
23

For every item below, please supply its %Inh.
1. Cc1ccc(C)c(NC(=O)NCCNc2ccnc(Nc3ccc(F)cc3)n2)c1
2. O=C(Nc1ccccc1)Nc1ccc(Oc2ccc3nccn3n2)cc1

15
16

###

Task for the reader: assign each of the following compounds its reported %Inh.
Test system: HPK1
condition set: concentration: 1 μM, replicates: in singlicate; n = 1
Numbers only, in %.

// known answers, use as guide
1) O=C(CCO)NCCn1ccc2ncnc(Nc3ccc(Oc4cccc(C(F)(F)F)c4)c(Cl)c3)c21
7
2) Clc1cc(Nc2ncnc3cc[nH]c23)ccc1OCc1ccccn1
0
3) Fc1ccc(Nc2nccc(-c3c(-c4ccc(Cl)cc4)nn4ncccc34)n2)cc1F [GW829058]
16

Value sought for every listed compound: %Inh.
1. O=C(Nc1ccccc1)Nc1ccc(Oc2ccc3nccn3n2)cc1
2. CC(=O)Nc1n[nH]c2ncc(-c3ccccc3)cc12 [SB-548492]

0
23

Parameters: items (list). Returns: %Inh for each item.
1. CCc1nc(-c2cccc(C)c2)c(-c2ccnc(NC(=O)c3ccccc3)c2)s1
2. CC(C)N1CCC(n2cnc(-c3ccc(F)cc3)c2-c2ccnc(N)n2)CC1 [SB-223132]
3. C[C@@H]1CCN(C(=O)CO)C[C@@H]1N(C)c1ncnc2[nH]ccc12
4. O=C(Nc1ccccc1F)NC1CCN(c2ccnc(Nc3ccc(F)cc3)n2)C1 (stereo not drawn) [GSK1379722]

[0, 0, 0, 42]
